Reported pKi values follow for various compounds
Target: serotonin transporter (Rattus norvegicus)
Sequence (P31652 whole entry): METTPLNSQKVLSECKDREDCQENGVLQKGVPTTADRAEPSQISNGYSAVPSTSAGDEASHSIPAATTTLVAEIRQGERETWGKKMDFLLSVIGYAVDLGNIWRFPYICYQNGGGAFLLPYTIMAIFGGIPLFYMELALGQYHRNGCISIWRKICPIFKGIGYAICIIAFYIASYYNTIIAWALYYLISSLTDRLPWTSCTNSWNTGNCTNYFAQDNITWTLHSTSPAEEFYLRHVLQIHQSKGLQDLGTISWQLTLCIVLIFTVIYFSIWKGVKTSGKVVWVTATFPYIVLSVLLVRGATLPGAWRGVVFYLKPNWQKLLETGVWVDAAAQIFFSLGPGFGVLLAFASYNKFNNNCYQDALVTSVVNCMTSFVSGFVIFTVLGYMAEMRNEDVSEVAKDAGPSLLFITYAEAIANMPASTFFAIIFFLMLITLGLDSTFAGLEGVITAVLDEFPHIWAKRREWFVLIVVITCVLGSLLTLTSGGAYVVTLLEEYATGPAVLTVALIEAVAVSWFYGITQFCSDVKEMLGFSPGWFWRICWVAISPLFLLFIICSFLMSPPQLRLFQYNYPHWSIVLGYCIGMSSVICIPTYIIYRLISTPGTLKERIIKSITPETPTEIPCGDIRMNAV
pKi: −log10 of the molar value.
measurementName: pKi

Cc1nc2ccc3c(c2c[n+]1[O-])OC(CN1CC=C(c2c[nH]c4ccccc24)CC1)CO3 (centres unmarked) [Example 3]
8.33
CCc1ncc2c3c(ccc2n1)OCC(CN1CC=C(c2c[nH]c4ccccc24)CC1)O3 (centres unmarked) [Example 5]
8.37
Fc1ccc2[nH]cc(C3=CCN(CC4COc5ccc6ncncc6c5O4)CC3)c2c1 (centres unmarked) [Example 1]
8.65
C1=C(c2c[nH]c3ccccc23)CCN(CC2COc3ccc4ncncc4c3O2)C1 (centres unmarked) [Example 2]
8.54
Cc1ncc2c3c(ccc2n1)OCC(CN1CC=C(c2c[nH]c4ccccc24)CC1)O3 (centres unmarked) [Example 4]
8.65
